molecular target: UniProt P49840; assay: concentration-response blocking of human GSK3A – biochemical, luminescence, cell-free homogeneous, retest, dose response (AID 463203); conditions: GSK-3 alpha enzyme, ADP-Glo luminescence, 60 min
Active and inactive are the calls of the source.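 Rule for the calls: active = more than half of replicate measurements showing over 20% loss of kinase signal relative to plate controls; inconclusive = some but at most half of replicates over 20% loss; inactive = no replicate over 20% signal loss.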
Mark one answer only. Choices: active, inactive

Request: What did the test return for COC1OC(COC(=O)c2ccccc2)C(OC(=O)c2ccccc2)C1OC(=O)c1ccccc1 (stereo unspecified) ?
Response: inactive

Request: What did the test return for COc1c(C)cc(Br)cc1C(=O)Nc1cccc(NC(=O)c2ccco2)c1 ?
Response: inactive

Request: What did the test return for S=C(Nc1ccc2c(c1)OCCO2)Nc1ccccc1Cl ?
Response: inactive

Request: What did the test return for CC1CN(c2nc(N(C)c3ccccc3)nc(N)c2[N+](=O)[O-])CC(C)O1 (stereo unspecified) ?
Response: inactive

Request: What did the test return for COc1ccccc1Nc1nc(Cl)c(C=O)s1 ?
Response: inactive

Request: What did the test return for Cc1ccc(S(=O)(=O)N(CC(O)CN2CCCCC2)c2ccccc2)cc1 (stereo unspecified) ?
Response: inactive

Request: What did the test return for Cc1ccc(NC(=O)C2CCN(c3ncnc4sc(C)c(C)c34)CC2)cc1S(=O)(=O)N(C)C ?
Response: inactive

Request: What did the test return for COc1ccc(-n2c(Cc3cccn3C)nnc2SCC(=O)Nc2ccc(F)cc2)cc1 ?
Response: inactive

Request: What did the test return for NC(=O)c1ccsc1NC(=O)COC(=O)Cc1ccsc1 ?
Response: active

Request: What did the test return for O=S(=O)(O)c1ccc(N=Nc2ccccc2)cc1 ?
Response: inactive

Request: What did the test return for CCC(=N\NC(=O)COc1ccccc1OC)/C(CC)=N/NC(=O)COc1ccccc1OC ?
Response: inactive

----------
biological target: Glycogen synthase kinase-3 alpha (Homo sapiens) (UniProt P49840); assay: concentration-response blocking of human GSK3A – biochemical, luminescence, cell-free homogeneous, retest, dose response (AID 463203); settings: GSK-3 alpha enzyme, ADP-Glo luminescence, 60 min
Sequence (P49840 whole entry, looked up): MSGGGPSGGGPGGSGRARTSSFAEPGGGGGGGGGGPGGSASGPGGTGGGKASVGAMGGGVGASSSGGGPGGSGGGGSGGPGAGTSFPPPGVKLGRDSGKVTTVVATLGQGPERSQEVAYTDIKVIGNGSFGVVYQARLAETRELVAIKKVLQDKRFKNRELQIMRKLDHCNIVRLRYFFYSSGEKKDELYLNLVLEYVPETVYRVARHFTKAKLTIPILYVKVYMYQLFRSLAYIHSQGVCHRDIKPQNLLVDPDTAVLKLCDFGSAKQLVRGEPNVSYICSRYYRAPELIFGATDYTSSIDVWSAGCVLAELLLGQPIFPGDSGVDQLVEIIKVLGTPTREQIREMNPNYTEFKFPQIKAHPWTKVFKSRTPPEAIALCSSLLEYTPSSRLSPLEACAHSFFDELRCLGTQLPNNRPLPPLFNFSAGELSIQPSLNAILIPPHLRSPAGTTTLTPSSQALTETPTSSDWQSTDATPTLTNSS
The source made the active and inactive calls.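 The calls were made as follows: active = more than half of replicate measurements showing over 20% loss of kinase signal relative to plate controls; inconclusive = some but at most half of replicates over 20% loss; inactive = no replicate over 20% signal loss.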
Mark one answer only. Choices: active, inactive

Request: What did the test return for N#CC1=C(SCC(=O)c2ccccc2)NC2=C(C(=O)CCC2)C1c1ccco1 (configuration not stated) ?
Response: inactive

Request: What did the test return for CCCCn1c(SCC(=O)Nc2sc3c(c2C(N)=O)CCC3)nnc1-c1ccccc1 ?
Response: inactive

Request: What did the test return for COc1ccc2[nH]c(C(=O)O)c(NS(=O)(=O)c3ccc(OC)c(OC)c3)c2c1 ?
Response: active

Request: What did the test return for COc1ccc(NC(=O)c2nnn(Cc3cccc(F)c3)c2N)c(OC)c1 ?
Response: inactive

Request: What did the test return for CCOc1ccc(Nc2nc(N(C)c3ccccc3)nc(N)c2[N+](=O)[O-])cc1 ?
Response: inactive

Request: What did the test return for CC(C)CC(O)C1CCN(C(=O)CCc2nnc(-c3ccc4c(c3)OCO4)o2)CC1 (configuration not stated) ?
Response: inactive

Request: What did the test return for COc1cccc(-c2[nH]nc3c2C(c2ccc(C)o2)C(C#N)=C(N)O3)c1 (configuration not stated) ?
Response: inactive

Request: What did the test return for CCOC(=O)c1sc(NC(=O)C2CC2)cc1C ?
Response: inactive

Request: What did the test return for S=C(NCCc1ccccc1)Nc1cccc2cnccc12 ?
Response: inactive

Request: What did the test return for Cc1ccc(CSc2nnc(-c3cccnc3)o2)cc1 ?
Response: inactive

Request: What did the test return for COc1ccc(CC(=O)N2CCOCC2)cc1 ?
Response: inactive

Request: What did the test return for O=C(CSc1ccc2nnc(-c3ccccn3)n2n1)N1CCOCC1 ?
Response: inactive

Request: What did the test return for CCN1/C(=C/C(C)=O)Sc2ccc(OC)cc21 ?
Response: active

Request: What did the test return for Cc1ccccc1/C=N/Nc1nc2ccccc2[nH]1 ?
Response: inactive

Request: What did the test return for NC(=O)c1cc([N+](=O)[O-])c(Cl)cc1NCc1cccnc1 ?
Response: active

Request: What did the test return for COc1ccc(Br)cc1C(=O)Nc1ccc(NC(=O)c2ccco2)cc1 ?
Response: inactive

Request: What did the test return for CCOC(=O)Nc1nc(C)c(C(=O)c2ccc(Cl)cc2)s1 ?
Response: inactive

Request: What did the test return for Cc1onc(-c2ccccc2Cl)c1C(=O)Nc1ccc(-c2cn3cccnc3n2)cc1 ?
Response: inactive

Request: What did the test return for Cc1ccc(Sc2ccc(NC(=O)CCl)cc2)cc1C ?
Response: inactive

Request: What did the test return for COc1ccc(C2C3(C#N)C(N)=NC(OC)(OC)C23C#N)cc1 (configuration not stated) ?
Response: inactive

Request: What did the test return for COc1ccc(Cl)cc1C(=O)Nc1ccc(NC(=O)c2ccco2)cc1 ?
Response: inactive

Request: What did the test return for Cc1cc(/C=N\NC(=O)c2cccs2)c(C)n1-c1ccc2ncccc2c1 ?
Response: inactive

Request: What did the test return for CCOc1cccc(-c2c(C(=O)N/N=C/c3ccncc3)nnn2-c2nonc2N)c1 ?
Response: active

Request: What did the test return for c1cncc(CSc2nnc3ccc(-c4cccs4)nn23)c1 ?
Response: active

Request: What did the test return for COc1ccc(C(=O)c2sc3nc(-c4ccc(OC)cc4)ccc3c2N)cc1 ?
Response: inactive

Request: What did the test return for Cc1ccc(Sc2nc(-c3ccccc3)nnc2C(F)(F)F)cc1 ?
Response: inactive

Request: What did the test return for COc1ccccc1CC(=O)N1CCOCC1 ?
Response: inactive

Request: What did the test return for NC(=O)c1cc([N+](=O)[O-])ccc1NCc1ccc(N)cc1 ?
Response: active

Request: What did the test return for CC(=O)Nc1ccccc1C ?
Response: inactive

Request: What did the test return for Cc1ccc(N(CC(O)CN2CCCCC2)S(=O)(=O)c2ccc(C)cc2)cc1 (configuration not stated) ?
Response: inactive

Request: What did the test return for CN(C)C(=O)Oc1ccc([N+](=O)[O-])cc1 ?
Response: inactive

Request: What did the test return for Cc1ccc(C(=O)N/N=c2\oc3ccccc3cc2C(N)=O)cc1 ?
Response: inactive

Request: What did the test return for Cc1ccc(-c2c3c(nc4sc(C(N)=O)c(N)c24)CCC3)cc1 ?
Response: active

Request: What did the test return for C#CCSc1nnc(-c2ccc(O)cc2)o1 ?
Response: active

Request: What did the test return for Cc1ccc(OCc2nnnn2-c2ccccc2)cc1 ?
Response: inactive

Request: What did the test return for Cc1ccnc(NC(=O)CCC(=O)N(CC(=O)NCc2ccc(F)cc2)Cc2ccccc2)c1 ?
Response: active

Request: What did the test return for CCOC(=O)c1[nH]c2c(c1C)C(=O)CC(c1ccc(OC)c(OC)c1)C2 (configuration not stated) ?
Response: inactive

Request: What did the test return for COc1ccc(CC(=O)Nc2ccc(-c3cn4ccccc4n3)cc2)cc1OC ?
Response: inactive

Request: What did the test return for C/C(=N\NC(=O)c1nnn(-c2nonc2N)c1CN1CCCCCC1)c1ccc(Br)cc1 ?
Response: active

Request: What did the test return for Clc1cncc(Cl)c1N/N=C/c1ccncc1 ?
Response: inactive

Request: What did the test return for CCCNC(=O)NC(C)C12CC3CC(CC(C3)C1)C2 (configuration not stated) ?
Response: inactive

Request: What did the test return for Cc1c(CCC(=O)O)c(=O)oc2cc(O)ccc12 ?
Response: inactive

Request: What did the test return for CC(C)(C)N=Cc1c(O)ccc2oc3c(c12)CCCC3 ?
Response: inactive

Request: What did the test return for O=C1NC(=O)/C(=C/c2ccc(O)cc2)S1 ?
Response: active

Request: What did the test return for CC1=C(C(=O)OCc2ccccc2)C(c2cccc(Br)c2)NC(=O)N1 (configuration not stated) ?
Response: active

Request: What did the test return for O=C(O)Cn1c(=O)c2c3c(sc2n(Cc2ccccc2)c1=O)CCCC3 ?
Response: inactive

Request: What did the test return for O=C(CSc1nnc(-c2ccc(O)cc2)o1)Nc1ccccc1 ?
Response: active

----------
target: Glycogen synthase kinase-3 alpha (Homo sapiens); test: concentration-response blocking of human GSK3A – biochemical, luminescence, cell-free homogeneous, retest, dose response (AID 463203); conditions: GSK-3 alpha enzyme, ADP-Glo luminescence, 60 min
Active and inactive are the calls of the source.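 How the source made its calls: active means more than half of replicate measurements showing over 20% loss of kinase signal relative to plate controls; inconclusive means some but at most half of replicates over 20% loss; inactive means no replicate over 20% signal loss.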
readout: AC50

Request: Query AC50 for CC(C)COc1ncnc2c1sc1nc3c(cc12)COC(C)(C)C3
Response: > 30 µM (inactive)

Request: Query AC50 for CC1=C(C(=O)OCc2ccc3c(c2)OCO3)C(c2cccc([N+](=O)[O-])c2)NC(=O)N1 (stereo unspecified)
Response: 3.28 µM

Request: Query AC50 for COC(=O)c1ccc(CSc2nnc(SCc3ccc(C(=O)OC)o3)s2)o1
Response: > 30 µM (inactive)

Request: Query AC50 for CC(OC(=O)Cc1c[nH]c2ccccc12)C(=O)c1ccccc1 (stereo unspecified)
Response: > 30 µM (inactive)

Request: Query AC50 for CCOC(=O)N1CC=C2C(C#N)=C(N)C(C#N)(C#N)[C@H](c3cccs3)C2C1 (stereo partly specified)
Response: 23.1 µM

Request: Query AC50 for Cc1ccc(-c2nnc(CSc3nnc(C)s3)o2)cc1
Response: > 30 µM (inactive)

Request: Query AC50 for O=C(CN1CCOCC1)Nc1cccc(Br)c1
Response: > 30 µM (inactive)

Request: Query AC50 for Nc1cc(C(F)(F)F)ccc1C(=O)O
Response: > 30 µM (inactive)

Request: Query AC50 for O=C(O)COc1c(Cl)cc(/C=C2/NC(=O)NC2=O)cc1Br
Response: 23 µM

Request: Query AC50 for Cc1nc(NCCc2ccccc2)c(C#N)c(C)c1[N+](=O)[O-]
Response: > 30 µM (inactive)

Request: Query AC50 for CNC(=O)CSc1nnc(-c2ccco2)n1-c1cccc(OC)c1
Response: > 30 µM (inactive)

Ref: PubChem BioAssay AID463203
